- Protocol Description: Drug repurposing screens with cells derived from glioblastoma tumor samples (AID 1345199); note: % is set by controls: 0 for no effect and ±100 for the full control effect; nearly all actives have a fitted effect of over 40% in size
- Protocol Conditions: GBM patient neurospheres viability, ATP luminescence, 48 h; at 46 µM (top of the series); tumour line A
Inconclusive results are not listed. Non-standard residues stand in square brackets, D forms with d. Residues, ends and D or L forms follow the SMILES beside them. *: point of attachment. Sta = CC(C)C[C@H](N)[C@@H](O)CC(=O)O; Isovaleryl = CC(C)CC(=O)*
Attribute Measured: activity, negative = cell killing (%)

INSERT INTO measurements (compound, measurement_unit, reported_value) VALUES
  ('Cc1ccc(C)c(OCCCC(C)(C)C(=O)O)c1', '%', -17.6),
  ('CC(C)(S)[C@@H](N)C(=O)O', '%', -3.65),
  ('CC(C)CC(=O)N[C@H](C(=O)N[C@H](C(=O)N[C@@H](CC(C)C)[C@@H](O)CC(=O)N[C@@H](C)C(=O)N[C@@H](CC(C)C)[C@@H](O)CC(=O)O)C(C)C)C(C)C (Isovaleryl-VV[Sta]A[Sta]-OH)', '%', -22.1),
  ('O=C(O)c1cc(=O)c2c(OCC(O)COc3cccc4oc(C(=O)O)cc(=O)c34)cccc2o1', '%', -3.33),
  ('Nc1ccc(S(N)(=O)=O)cc1', '%', -12.5),
  ('C[C@]12CCC(=O)C=C1CC[C@@H]1[C@H]2[C@@H](O)C[C@@]2(C)[C@H]1CC[C@]2(O)C(=O)CO', '%', -3.08),
  ('O=P(O)(O)C(O)(Cn1ccnc1)P(=O)(O)O', '%', -16.2),
  ('CC1(C)CCC(C)(C)c2cc(NC(=O)c3ccc(C(=O)O)cc3)ccc21', '%', -36.1),
  ('CCC[C@@H]1C[C@@H](C(=O)N[C@@H]([C@H]2O[C@H](SC)[C@H](O)[C@@H](O)[C@H]2O)[C@@H](C)O)N(C)C1', '%', -2.05);

---

- Protocol Description: NS1 protein of Zika virus - qHTS assay to identify small molecule inhibitors in human HEK 293 cells (AID 1347053); note: nearly all actives have a fitted effect of over 55% in size
- Protocol Conditions: HEK293 ZIKV MR766 infection, NS1 TR-FRET, 24 h; series mostly up to 46.1 µM
Records with an inconclusive call do not appear. Calls of active or inactive are those of the source. Calls come from the whole dose curve; as a rule, active = well fitted inhibition curve with a large enough effect; inconclusive = small, poorly fitted or top-dose-only effect; inactive = no such curve, though single readings can be large or run the other way. Non-standard residues stand in square brackets, D forms with d. Residues, ends and D or L forms follow the SMILES beside them. *: point of attachment. Sta = CC(C)C[C@H](N)[C@@H](O)CC(=O)O; Isovaleryl = CC(C)CC(=O)*
Outcomes: active, inactive

INSERT INTO measurements (compound, label) VALUES
  ('C=CCc1cc(OC)c(O)c(C(=O)NCCO)c1', 'inactive'),
  ('CC(C)CC(=O)N[C@H](C(=O)N[C@H](C(=O)N[C@@H](CC(C)C)[C@@H](O)CC(=O)N[C@@H](C)C(=O)N[C@@H](CC(C)C)[C@@H](O)CC(=O)O)C(C)C)C(C)C (Isovaleryl-VV[Sta]A[Sta]-OH)', 'inactive'),
  ('CCN(CC)CCOc1ccc(Nc2ncc3cc(-c4c(Cl)cccc4Cl)c(=O)n(C)c3n2)cc1', 'active'),
  ('CNC[C@H](O)c1ccc(O)c(O)c1', 'inactive'),
  ('NS(=O)(=O)c1cc(C(=O)O)c(NCc2ccco2)cc1Cl', 'inactive'),
  ('CN(C)c1ccc2nc3ccc(=[N+](C)C)cc-3sc2c1', 'inactive'),
  ('C[C@H](Cn1cnc2c(N)ncnc21)OCP(=O)(O)O', 'inactive'),
  ('Cc1cc(Cl)ccc1OCCCC(=O)NO', 'inactive'),
  ('O=c1oc2cc(O)ccc2s1', 'inactive'),
  ('Cc1nc(-c2ccc(OCC(C)C)c(C#N)c2)sc1C(=O)O', 'inactive');

---

- Protocol Description: qHTS for Inhibitors of ATXN expression: Validation (AID 588378); note: nearly all actives have a fitted effect of over 75% in size
- Protocol Conditions: cell-based ATXN2 expression reporter assay, luminescence; series mostly up to 57.1 µM
- Source text: Spinocerebellar ataxia type 2 (SCA2) is a multisystem neurodegenerative disease caused by a dominantly-acting mutation leading to expansion of a polyQ domain in the ataxin-2 protein (ATXN2). SCA2 patients develop progressive ataxia and later lose function in other neuronal systems. Prominent parkinsonian signs develop in some patients. Similar to many neurodegenerative disorders, no symptomatic or disease-modifying treatments are known. […]
Inconclusive results are not listed. Calls of active or inactive are those of the source. The call rests on the fitted dose curve; in most records, active means well fitted inhibition curve with a large enough effect; inconclusive means small, poorly fitted or top-dose-only effect; inactive means no such curve, though single readings can be large or run the other way.
Outcomes: 1 for active, 0 for inactive

INSERT INTO assay_data (compound, label) VALUES
  ('NCCCCNCCCN', 0),
  ('O=C1NC(=O)C(c2ccccc2[N+](=O)[O-])=C1Nc1ccc(O)c(Cl)c1', 0),
  ('CNC[C@H](O)c1ccc(O)c(O)c1', 0),
  ('O=c1ccc2ccc(O)c(O)c2o1', 0),
  ('O=c1c(O)c(-c2ccc(O)cc2O)oc2cc(O)cc(O)c12', 0),
  ('O=C(O)c1cccnc1Nc1cccc(C(F)(F)F)c1', 0),
  ('Cc1cc(O)c2c(c1)C(=O)c1cc(O)cc(O)c1C2=O', 0),
  ('C[C@H](Cc1ccc(O)c(O)c1)[C@@H](C)Cc1ccc(O)c(O)c1', 1),
  ('NNc1nncc2ccccc12', 0),
  ('O=C1c2ccccc2-c2n[nH]c3cccc1c23', 0),
  ('CCOC(=O)C(C)Oc1cccc2c(=O)n(CC(=O)Nc3ccc4c(c3)OCCO4)ccc12 (configuration not stated)', 0),
  ('O=c1cc(N2CCOCC2)oc2c(-c3ccccc3)cccc12', 0);

---

- Protocol Description: Quantitative High-Throughput drug screen in 47 multiple myeloma cell lines against the NCATS MIPE library collection: OPM2_DSMZ cell viability assay (AID 1919872); note: nearly all actives have a fitted effect of over 30% in size
- Protocol Conditions: OPM2 myeloma viability, CellTiter-Glo ATP luminescence, 48 h; series mostly up to 45.8 µM
Inconclusive results are not listed. The source made the active and inactive calls. The call rests on the fitted dose curve; in most records, active means well fitted cell-killing curve with a large enough effect; inconclusive means small, poorly fitted or top-dose-only effect, or effect the other way; inactive means no such curve, though single readings can be large or run the other way.
Outcomes: 1 = active, -1 = inactive

INSERT INTO results (compound, label) VALUES
  ('CCOC(=O)c1c(C)n(C)c2ccc(O)cc12', -1),
  ('COC1=C(OC)C(=O)C(CCCCCCCCCCO)=C(C)C1=O', -1),
  ('O=C1NC(=O)C(c2ccccc2[N+](=O)[O-])=C1Nc1ccc(O)c(Cl)c1', -1),
  ('CC(C)(S)[C@@H](N)C(=O)O', -1),
  ('CN(C)c1ccc(O)c2c1C[C@H]1C[C@H]3[C@H](N(C)C)C(=O)C(C(N)=O)=C(O)[C@@]3(O)C(=O)C1=C2O', 1),
  ('CCN(CC)CCOc1ccc(Nc2ncc3cc(-c4c(Cl)cccc4Cl)c(=O)n(C)c3n2)cc1', 1),
  ('CC(S)C(=O)NCC(=O)O (configuration not stated)', -1),
  ('Cc1ccc(NC(=O)c2ccc(CN3CCN(C)CC3)cc2)cc1Nc1nccc(-c2cccnc2)n1', -1),
  ('C[C@H](Cn1cnc2c(N)ncnc21)OCP(=O)(O)O', -1),
  ('O=c1c(O)c(-c2ccc(O)cc2O)oc2cc(O)cc(O)c12', -1),
  ('COC(=O)C1=C(C)NC(C)=C(C(=O)OC(C)C)C1c1cccc2nonc12 (configuration not stated)', -1),
  ('CN1C(C(=O)Nc2ccccn2)=C(O)c2sccc2S1(=O)=O', -1),
  ('O=C(NCCO[N+](=O)[O-])c1cccnc1', -1),
  ('O=C(O)c1cn(-c2ccc(F)cc2)c2cc(N3CCNCC3)c(F)cc2c1=O', -1),
  ('Nc1ccc(S(N)(=O)=O)cc1', -1),
  ('c1cnc2cc3c(cc2n1)C1CNCC3C1', -1),
  ('COc1cc(OC)c(C(=O)CCCN2CCCC2)c(OC)c1', -1),
  ('CCOC(=O)C1=C[C@@H](OC(CC)CC)[C@H](NC(C)=O)[C@@H](N)C1', -1),
  ('O=P(O)(O)C(O)(Cn1ccnc1)P(=O)(O)O', -1),
  ('O=C(O)c1cc(=O)c2c(OCC(O)COc3cccc4oc(C(=O)O)cc(=O)c34)cccc2o1', -1),
  ('CCCCc1ccc2nc(NC(=O)OC)[nH]c2c1', 1),
  ('COc1ccccc1N1CCN(CCN(C(=O)C2CCCCC2)c2ccccn2)CC1', -1),
  ('CCCCC(CC)COC(=O)C(C#N)=C(c1ccccc1)c1ccccc1 (configuration not stated)', -1),
  ('CC1Cc2ccccc2N1NC(=O)c1ccc(Cl)c(S(N)(=O)=O)c1 (configuration not stated)', -1),
  ('CS(=O)(=O)OCCCCOS(C)(=O)=O', -1),
  ('C[C@H](Cc1ccc(O)c(O)c1)[C@@H](C)Cc1ccc(O)c(O)c1', 1),
  ('O=c1oc2cc(O)ccc2s1', -1);
